- measurementTarget: furin, P09958;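 further: purified furin at 1:10 enzyme:substrate in 50 mM HEPES pH 7.5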
- Sequence (P09958 whole entry): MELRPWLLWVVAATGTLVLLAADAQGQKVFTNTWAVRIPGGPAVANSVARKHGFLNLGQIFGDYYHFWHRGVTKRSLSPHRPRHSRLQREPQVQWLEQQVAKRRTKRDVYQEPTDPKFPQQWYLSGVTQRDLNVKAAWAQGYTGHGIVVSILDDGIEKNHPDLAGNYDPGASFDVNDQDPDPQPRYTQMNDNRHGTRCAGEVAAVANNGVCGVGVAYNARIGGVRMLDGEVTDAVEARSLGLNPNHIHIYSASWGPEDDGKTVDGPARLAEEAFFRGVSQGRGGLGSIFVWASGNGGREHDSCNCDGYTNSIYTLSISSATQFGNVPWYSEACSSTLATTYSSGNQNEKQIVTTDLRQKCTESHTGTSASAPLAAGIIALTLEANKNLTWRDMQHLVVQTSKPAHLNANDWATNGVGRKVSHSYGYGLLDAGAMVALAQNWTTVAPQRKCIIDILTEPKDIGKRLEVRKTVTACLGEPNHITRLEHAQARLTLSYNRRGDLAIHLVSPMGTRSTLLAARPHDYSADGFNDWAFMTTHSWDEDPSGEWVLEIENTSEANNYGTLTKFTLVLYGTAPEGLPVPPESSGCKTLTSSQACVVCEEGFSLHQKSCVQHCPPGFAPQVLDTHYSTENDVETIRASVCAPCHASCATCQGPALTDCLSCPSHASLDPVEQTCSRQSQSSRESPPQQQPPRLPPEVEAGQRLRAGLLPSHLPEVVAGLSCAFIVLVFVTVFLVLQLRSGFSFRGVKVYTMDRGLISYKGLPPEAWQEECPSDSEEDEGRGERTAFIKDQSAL
- test: furin cleavage Z-score vs untreated control; higher = more cleavage, active = 3.5 or more, inactive = 1 or less, 8 variable residues between constant flanks
- assaySetup: 15 min
Some of the results follow. The true hit rate is not given.
metric: furin cleavage Z-score

recordSequence: CAGSLRKKRLAGNASASA [FS-1528]
number: 9.41

recordSequence: CAEMEVPCHRAGNASASA [HC2446]
number: 3.24

recordSequence: CACHCGAEITAGNASASA [HC1175]
number: -1.4

recordSequence: CASTPCSAKLAGNASASA [HC2554]
number: 1.72
